Hey, just so you know, these numbers are from patent US10633397B2.

target: CYP3A4 (Homo sapiens, UniProt P08684); construct: Using commercially available pooled human hepatic microsome; from tissue; assay: biochemical; format: in vitro ADME
Sequence (P08684 whole entry): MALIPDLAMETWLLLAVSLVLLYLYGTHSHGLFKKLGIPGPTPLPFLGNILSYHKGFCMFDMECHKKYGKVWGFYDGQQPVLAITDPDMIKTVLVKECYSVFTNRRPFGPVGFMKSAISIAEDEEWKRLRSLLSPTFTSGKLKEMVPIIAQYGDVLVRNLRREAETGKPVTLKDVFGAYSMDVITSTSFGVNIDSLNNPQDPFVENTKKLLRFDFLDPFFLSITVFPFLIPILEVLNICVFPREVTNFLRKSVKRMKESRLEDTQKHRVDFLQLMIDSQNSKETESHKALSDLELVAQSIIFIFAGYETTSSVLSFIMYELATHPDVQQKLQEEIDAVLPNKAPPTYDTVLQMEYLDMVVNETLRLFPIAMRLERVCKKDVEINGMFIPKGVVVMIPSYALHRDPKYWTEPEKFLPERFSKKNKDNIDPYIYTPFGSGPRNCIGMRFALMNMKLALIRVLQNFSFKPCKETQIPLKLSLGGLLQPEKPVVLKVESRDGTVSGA
pIC50: −log10 of the molar value.

[
  {
    "Compound smiles": "O=C1c2c(O)c(=O)ccn2N([C@@H]2c3ccccc3SCc3c2ccc(F)c3F)[C@@H]2COCCN12",
    "pIC50": "< 4.70"
  }
]

----------
target: hERG (IKr) (Homo sapiens, UniProt Q12809); construct: expressed in transfected cells; host or cells: HEK293; test: hERG test; type: cell-based; conditions: HEK293 cells expressing hERG channel, pH 7.4, 0.3 to 10 μM of test compound, read-out: % inhibition of tail peak current (IKr)
Sequence (Q12809 whole entry): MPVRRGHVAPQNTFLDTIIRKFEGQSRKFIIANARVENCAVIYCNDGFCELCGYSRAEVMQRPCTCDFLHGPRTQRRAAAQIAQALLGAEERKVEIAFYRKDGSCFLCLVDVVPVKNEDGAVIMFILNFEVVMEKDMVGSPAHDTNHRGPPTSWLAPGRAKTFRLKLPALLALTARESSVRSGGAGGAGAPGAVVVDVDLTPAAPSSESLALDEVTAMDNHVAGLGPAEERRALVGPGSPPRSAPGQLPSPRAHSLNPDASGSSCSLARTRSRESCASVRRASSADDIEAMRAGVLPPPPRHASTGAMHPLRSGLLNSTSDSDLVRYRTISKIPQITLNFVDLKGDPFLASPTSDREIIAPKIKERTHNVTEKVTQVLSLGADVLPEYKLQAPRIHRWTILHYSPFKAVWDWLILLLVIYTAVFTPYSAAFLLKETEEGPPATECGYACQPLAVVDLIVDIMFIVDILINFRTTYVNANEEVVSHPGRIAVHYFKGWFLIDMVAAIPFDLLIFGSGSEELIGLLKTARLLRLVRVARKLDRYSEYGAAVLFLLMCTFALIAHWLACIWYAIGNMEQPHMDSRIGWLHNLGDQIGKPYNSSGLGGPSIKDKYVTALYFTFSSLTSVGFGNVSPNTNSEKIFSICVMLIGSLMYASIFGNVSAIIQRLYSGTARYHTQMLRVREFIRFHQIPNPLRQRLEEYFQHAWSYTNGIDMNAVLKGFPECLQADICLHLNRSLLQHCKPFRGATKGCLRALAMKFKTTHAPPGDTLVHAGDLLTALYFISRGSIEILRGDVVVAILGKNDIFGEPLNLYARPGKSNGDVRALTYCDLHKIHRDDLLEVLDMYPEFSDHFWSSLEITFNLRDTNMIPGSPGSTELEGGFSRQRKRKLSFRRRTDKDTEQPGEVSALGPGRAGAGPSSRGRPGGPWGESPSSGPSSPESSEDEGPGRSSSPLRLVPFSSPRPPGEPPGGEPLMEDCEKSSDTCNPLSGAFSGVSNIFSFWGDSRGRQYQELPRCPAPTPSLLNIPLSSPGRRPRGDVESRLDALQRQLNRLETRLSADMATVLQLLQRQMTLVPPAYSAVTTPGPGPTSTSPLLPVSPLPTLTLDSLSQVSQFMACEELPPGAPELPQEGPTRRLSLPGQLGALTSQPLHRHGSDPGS

[
  {
    "Molecule": "O=C1c2c(O)c(=O)ccn2N([C@@H]2c3ccccc3SCc3c2ccc(F)c3F)[C@@H]2COCCN12 [III-2]",
    "inhibition at 10 min [%]": 7.9
  }
]
